Data origin, for the record: patent US7368471B2

Catalogue of compounds with associated melting point

Example cases with answers are listed next.
- SUBSTANCE SMILES: "Cn1cc(C(=O)C(=O)O)c2ccc(-c3ccc(C(C)(C)C)cc3)cc21"
  OBSERVED MEASUREMENT: "201 to 202 °C (dec.)"
- SUBSTANCE SMILES: "CC(C)(C)c1ccc(Cn2cc(C(=O)C(=O)O)c3cc(-c4ccc(C(C)(C)C)cc4)ccc32)cc1"
  OBSERVED MEASUREMENT: "111 to 112 °C"

[in] Please give the measured melting point for this compound: Cn1cc(CC(=O)O)c2cc(-c3ccc(C(F)(F)F)cc3)ccc21
[out] 167 to 168 °C

[in] Please give the measured melting point for this compound: Cn1cc(C(=O)C(=O)O)c2ccc(-c3ccc(OC(F)(F)F)cc3)cc21
[out] 233 to 235 °C (dec.)
